biological target: Aβ42 (Homo sapiens, UniProt P05067); assay: Th-T (thioflavin-T) assay of Aβ42 aggregation; assay type: biochemical; conditions: column suffix _20; reading M16
Sequence (P05067 672-713): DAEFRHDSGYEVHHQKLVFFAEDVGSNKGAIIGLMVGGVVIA
Please respond with reported Th-T assay signal, mean of three wells (Fig. 7a) for every item in the list.

Past entries and their recorded results:
>>> result("C=C1CC[C@@H]2[C@](C)(CC[C@H]3O[C@H](C=C(C)C)C[C@@]23C)[C@@H]1Cc1c(OC)oc(CO)c(C(=O)OC)c1=O")
0.1968
>>> result("C=C1CCC2C(C)(CCC=C(C)C)C(O)CCC2(C)C1Cc1c(OC)oc(C)c(C(=O)OC)c1=O (centres unmarked)")
0.7497
>>> result("C=C1CC[C@@H]2[C@](C)(CC[C@H]3O[C@H](C=C(C)C)C[C@@]23C)[C@@H]1Cc1c(OC)oc(CO)c(C)c1=O")
2.813
>>> result("C=C1CCC2C(C)(CCC=C(C)C)C(O)CCC2(C)C1Cc1c(OC)oc(CO)c(C(=O)OC)c1=O (centres unmarked)")
0.1835

Query compound follows.
// Input: C=C1CCC2C(C)(CCC=C(C)C)C(O)CCC2(C)C1Cc1c(OC)oc(CO)c(C)c1=O (centres unmarked) . Output its Th-T assay signal, mean of three wells (Fig. 7a) only. 2.5699

----------
Could you please report measured Th-T fluorescence, mean of three wells for the items listed next?
target: Aβ42 (Homo sapiens); assay: Th-T (thioflavin-T) assay of Aβ42 aggregation; format: biochemical; conditions: time-course reading M102; Supplementary Fig. 47 source data

Sample answers from the record:
>>> result("C=C1CC[C@H]2[C@]3(C)C[C@H](C=C(C)C)O[C@H]3CC[C@]2(C)[C@@H]1Cc1c(OC)oc(CO)c(C)c1=O")
3.862
>>> result("C=C1CC[C@@H]2[C@](C)(CC[C@H]3O[C@H](C=C(C)C)C[C@@]23C)[C@@H]1Cc1c(OC)oc(CO)c(C(=O)OC)c1=O")
1.048

Count: 4. Required value per item: Th-T fluorescence, mean of three wells.
1. C=C1CCC2C(C)(CCC=C(C)C)C(O)CCC2(C)C1Cc1c(OC)oc(C)c(C(=O)OC)c1=O (centres unmarked)
2. C=C1CCC2C(C)(CCC=C(C)C)C(O)CCC2(C)C1Cc1c(OC)oc(C)c(C)c1=O (centres unmarked) [Compound 11]
3. C=C1CCC2C3(C)CC(C=C(C)C)OC3CCC2(C)C1Cc1c(OC)oc(C)c(C)c1=O (centres unmarked)
4. C=C1CCC2C(C)(CC(=O)C=C(C)C)C(O)CCC2(C)C1Cc1c(OC)oc(CO)c(C)c1=O (centres unmarked)

[1.603, 3.494, 3.878, 3.633]

For the 3 molecules below, give their Th-T fluorescence, mean of three wells values.
1. C=C1CCC2C(C)(CCC=C(C)C)C(=O)CCC2(C)C1Cc1c(O)c(C)c(C)oc1=O (centres unmarked)
2. C=C1CCC2C(C)(CC(=O)C=C(C)C)C(O)CCC2(C)C1Cc1c(OC)oc(C)c(C)c1=O (centres unmarked)
3. C=C1CCC2C(C)(CCC=C(C)C)C(O)CCC2(C)C1Cc1c(OC)oc(CO)c(C)c1=O (centres unmarked)

[2.236, 3.581, 2.082]

----------
Exercise: for every item that follows, state its recorded Th-T fluorescence of Aβ42 (sheet Fig. 7a), mean of three wells.
target: Aβ42 (Homo sapiens, UniProt P05067); test: Th-T (thioflavin-T) assay of Aβ42 aggregation; format: biochemical; conditions: head suffix _50 (concentration 50); reading M82

Use these answered entries as a reference point.
>>> result("C=C1CCC2C(C)(CCC=C(C)C)C(O)CCC2(C)C1Cc1c(OC)oc(CO)c(C)c1=O (centres unmarked)")
1.419
>>> result("C=C1CCC2C(C)(CCC=C(C)C)C(O)CCC2(C)C1Cc1c(OC)oc(CO)c(C(=O)OC)c1=O (centres unmarked)")
0.4723
>>> result("C=C1CCC2C(C)(CCC=C(C)C)C(O)CCC2(C)C1Cc1c(OC)oc(C)c(C(=O)OC)c1=O (centres unmarked)")
2.201
>>> result("C=C1CC[C@@H]2[C@](C)(CC[C@H]3O[C@H](C=C(C)C)C[C@@]23C)[C@@H]1Cc1c(OC)oc(CO)c(C)c1=O")
2.102

Moving on to the next compound.
Note down Th-T fluorescence of Aβ42 (sheet Fig. 7a), mean of three wells recorded for C=C1CC[C@@H]2[C@](C)(CC[C@H]3O[C@H](C=C(C)C)C[C@@]23C)[C@@H]1Cc1c(OC)oc(CO)c(C(=O)OC)c1=O 0.3487

----------
target: UniProtKB P05067; assay: Th-T (thioflavin-T) assay of Aβ42 aggregation; type: biochemical; conditions: reading M127; compound at 50 (head suffix _50)
Rule: Th-T fluorescence, mean of three wells (Fig. 7a) below 0.9 gives Y, anything at or above gives N.

>>> cat("C=C1CCC2C(C)(CCC=C(C)C)C(O)CCC2(C)C1Cc1c(OC)oc(CO)c(C)c1=O (centres unmarked) [Compound 12]")
"N"
>>> cat("C=C1CC[C@@H]2[C@](C)(CC[C@H]3O[C@H](C=C(C)C)C[C@@]23C)[C@@H]1Cc1c(OC)oc(CO)c(C(=O)OC)c1=O [Compound 21]")
"Y"
>>> cat("C=C1CC[C@@H]2[C@](C)(CC[C@H]3O[C@H](C=C(C)C)C[C@@]23C)[C@@H]1Cc1c(OC)oc(CO)c(C)c1=O [Compound 20]")
"N"

Would you kindly look at the next entry?
Find out if reported Th-T fluorescence, mean of three wells (Fig. 7a) for C=C1CCC2C(C)(CCC=C(C)C)C(O)CCC2(C)C1Cc1c(OC)oc(CO)c(C(=O)OC)c1=O (centres unmarked) [Compound 13] is less than 0.9 Y

----------
molecular target: Aβ42 (Homo sapiens); experiment: Th-T (thioflavin-T) assay of Aβ42 aggregation; assay type: biochemical; details: compound at 50; reading M47 of time course
ENDPOINT LABEL: Th-T fluorescence, mean of three wells
Numbers only.

Kindly give each listed record's Th-T fluorescence, mean of three wells.
1. C=C1CCC2C(C)(CCC=C(C)C)C(O)CCC2(C)C1Cc1c(OC)oc(CO)c(C)c1=O (centres unmarked)
2. C=C1CC[C@@H]2[C@](C)(CC[C@H]3O[C@H](C=C(C)C)C[C@@]23C)[C@@H]1Cc1c(OC)oc(CO)c(C(=O)OC)c1=O
3. C=C1CCC2C(C)(CCC=C(C)C)C(O)CCC2(C)C1Cc1c(OC)oc(CO)c(C(=O)OC)c1=O (centres unmarked)
4. C=C1CC[C@@H]2[C@](C)(CC[C@H]3O[C@H](C=C(C)C)C[C@@]23C)[C@@H]1Cc1c(OC)oc(CO)c(C)c1=O
5. C=C1CCC2C(C)(CCC=C(C)C)C(O)CCC2(C)C1Cc1c(OC)oc(C)c(C(=O)OC)c1=O (centres unmarked)

1.489
0.2129
0.4654
2.113
5.101

----------
target: Aβ42 (Homo sapiens, UniProt P05067); assay: Th-T (thioflavin-T) assay of Aβ42 aggregation; format: biochemical; conditions: time-course reading M114; Supplementary Fig. 47 source data
Kindly state Th-T fluorescence, mean of three wells for each of the entries shown.
One number for each entry.

>>> result_number("C=C1CC[C@H]2[C@]3(C)C[C@H](C=C(C)C)O[C@H]3CC[C@]2(C)[C@@H]1Cc1c(O)c(C)c(C)oc1=O")
3.07
>>> result_number("C=C1CC[C@H]2[C@]3(C)C[C@H](C=C(C)C)O[C@H]3CC[C@]2(C)[C@@H]1Cc1c(OC)oc(C)c(C)c1=O")
3.927
>>> result_number("C=C1CCC2C(C)(CC(=O)C=C(C)C)C(O)CCC2(C)C1Cc1c(O)c(C)c(C)oc1=O (stereo not drawn)")
3.543
>>> result_number("C=C1CCC2C(C)(CCC=C(C)C)C(O)CCC2(C)C1Cc1c(OC)oc(CO)c(C)c1=O (stereo not drawn)")
2.053
>>> result_number("C=C1CCC2C(C)(CCC=C(C)C)C(O)CCC2(C)C1Cc1c(O)c(C)c(C)oc1=O (stereo not drawn) [Compound 9, higginsianin B]")
2.8
>>> result_number("C=C1CCC2C(C)(CCC=C(C)C)C(O)CCC2(C)C1Cc1c(OC)oc(C)c(C)c1=O (stereo not drawn) [Compound 15, viridoxin A hydrolysate]")
3.378
>>> result_number("C=C1CC[C@@H]2[C@](C)(CC[C@H]3O[C@H](C=C(C)C)C[C@@]23C)[C@@H]1Cc1c(OC)oc(CO)c(C(=O)OC)c1=O")
1.039
>>> result_number("C=C1CCC2C3(C)CC(C=C(C)C)OC3CCC2(C)C1Cc1c(OC)oc(C)c(C)c1=O (stereo not drawn)")
3.858
>>> result_number("C=C1CCC2C(C)(CCC=C(C)C)C(O)CCC2(C)C1Cc1c(OC)oc(C)c(C(=O)OC)c1=O (stereo not drawn)")
1.648
>>> result_number("C=C1CCC2C(C)(CCC=C(C)C)C(O)CCC2(C)C1Cc1c(OC)oc(CO)c(C(=O)OC)c1=O (stereo not drawn)")
1.037

For every item in the list below, what is its measured Th-T fluorescence, mean of three wells?
1. C=C1CCC2C(C)(CC(=O)C=C(C)C)C(O)CCC2(C)C1Cc1c(OC)oc(CO)c(C)c1=O (stereo not drawn)
2. C=C1CCC2C(C)(CCC=C(C)C)C(=O)CCC2(C)C1Cc1c(O)c(C)c(C)oc1=O (stereo not drawn)
3. C=C1CC[C@H]2[C@]3(C)C[C@H](C=C(C)C)O[C@H]3CC[C@]2(C)[C@@H]1Cc1c(OC)oc(CO)c(C)c1=O
4. C=C1CCC2C(C)(CCC=C(C)C)C(O)CCC2(C)C1Cc1c(OC)oc(C)c(C)c1=O (stereo not drawn) [Compound 11]
5. C=C1CCC2C(C)(CC(=O)C=C(C)C)C(O)CCC2(C)C1Cc1c(OC)oc(C)c(C)c1=O (stereo not drawn)

[3.63, 2.196, 3.862, 3.447, 3.62]
